Just for reference, paper PMC2648812 is where these values come from.

Target: mouse Dvl1 PDZ domain (Mus musculus, UniProt P51141)
Sequence (P51141 247-341): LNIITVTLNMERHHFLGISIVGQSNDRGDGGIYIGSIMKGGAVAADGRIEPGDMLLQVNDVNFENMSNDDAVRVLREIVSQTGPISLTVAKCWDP
REPORTED PROPERTY: pKd
Scale explanation: pKd corresponds to minus log10 of a concentration expressed in moles per litre.

Using the record for CC(NC(=O)C(OC(=O)C(C)NC(=O)OC(C)(C)C)C(C)C)C(=O)OC(C(=O)O)C(C)C (stereo not shown) , report its pKd. 1.57
